All values here come from patent US8796466B2.

// values below are reported EC50
# System: HCV 1b genotype
# Assay summary: HCV Replicon assay (HCV 1b genotype)
# Assay type: cell-based, Hepatitis C virus
# Applied conditions: Hepatitis C virus; HCV 1b genotype replicon; class symbol; read-out: Range (EC50 values against HCV 1b)

Compound	System tested	EC50
COC(=O)N[C@H](C(=O)N1C[C@@H](O)C[C@H]1c1ncc(-c2ccc(C#Cc3ccc(-c4cnc([C@@H]5C[C@H](O)CN5C(=O)[C@@H](NC(=O)OC)C(C)C)[nH]4)cc3)cc2)[nH]1)C(C)C [Example N7]	HCV 1b genotype	0.002 to 0.099 nM
O=C([C@H](O)c1ccccc1)N1CCC[C@H]1c1nc(-c2ccc(Oc3cccc(-c4c[nH]c([C@@H]5CCCN5C(=O)[C@H](O)c5ccccc5)n4)c3)cc2)c[nH]1 [OL-5]	HCV 1b genotype	10 to 350 nM
COC(=O)N[C@H](C(=O)N1CCC[C@H]1c1ncc(-c2cccc(C#Cc3cccc(-c4cnc([C@@H]5CCCN5C(=O)[C@@H](NC(=O)OC)C5CCOCC5)[nH]4)c3)c2)[nH]1)C1CCOCC1 [Example J2]	HCV 1b genotype	0.1 to 0.99 nM
O=C([C@H](O)c1ccccc1)N1CCC[C@H]1c1nc(-c2ccc(CCc3ccc(-c4c[nH]c([C@@H]5CCCN5C(=O)[C@H](O)c5ccccc5)n4)cc3)cc2)c[nH]1 [OL-10]	HCV 1b genotype	0.002 to 0.099 nM
CN(C)[C@@H](C(=O)N1CCC[C@H]1c1ncc(-c2ccc(CCc3ccc(-c4cnc([C@@H]5CCCN5C(=O)[C@@H](c5ccccc5)N(C)C)[nH]4)cc3)cc2)[nH]1)c1ccccc1 [OL-9]	HCV 1b genotype	0.002 to 0.099 nM
CNC(=O)N[C@@H](C(=O)N1CCC[C@H]1c1nc(-c2ccc(COCc3ccc(-c4cnc([C@@H]5CCCN5C(=O)[C@H](NC(=O)NC)c5ccccc5)[nH]4)cc3)cc2)c[nH]1)c1ccccc1 [OL-17]	HCV 1b genotype	0.002 to 0.099 nM
CC[C@H](NC(=O)OC)C(=O)N1[C@@H]2C[C@@H]2C[C@H]1c1nc(-c2ccc(C#Cc3ccc(-c4c[nH]c([C@@H]5C[C@H]6C[C@H]6N5C(=O)[C@H](CC)NC(=O)OC)n4)cc3)cc2)c[nH]1 [Example M4]	HCV 1b genotype	0.002 to 0.099 nM
COC(=O)N[C@H](C(=O)N1[C@@H]2C[C@@H]2C[C@H]1c1nc2c([nH]1)-c1ccc(C#Cc3ccc4c(c3)CCc3nc([C@@H]5C[C@H]6C[C@H]6N5C(=O)[C@@H](NC(=O)OC)C(C)C)[nH]c3-4)cc1CC2)C(C)C [Example D-9]	HCV 1b genotype	0.002 to 0.099 nM

Shift focus to the following entry.
Query :: Note EC50 for the compound shown: COC(=O)N[C@H](C(=O)N1[C@@H]2C[C@@H]2C[C@H]1c1nc2ccc3cc(C#Cc4ccc5c(ccc6nc([C@@H]7C[C@H]8C[C@H]8N7C(=O)[C@@H](NC(=O)OC)C7CCOCC7)[nH]c65)c4)ccc3c2[nH]1)C(C)C [Example D-11]
Result :: 0.002 to 0.099 nM

====

# Tested on: HCV 1b genotype
# Assay summary: HCV Replicon assay (HCV 1b genotype)
# Type: cell-based, Hepatitis C virus
# Applied conditions: Hepatitis C virus; HCV 1b genotype replicon; class symbol; read-out: Range (EC50 values against HCV 1b)
pEC50: −log10 of the molar value.
Assay metric: pEC50

Study these solved cases before continuing.
Smiles text	pEC50
COC(=O)N[C@@H](C(=O)N1CCC[C@H]1c1nc(-c2ccc(COCc3ccc(-c4c[nH]c([C@@H]5CCCN5C(=O)[C@H](NC(=O)OC)c5ccccc5)n4)cc3)cc2)c[nH]1)c1ccccc1	10.00 to 11.70
COC(=O)N[C@H](C(=O)N1CCC[C@H]1c1nc(-c2ccc(C#Cc3ccc(-c4ccc(-c5c[nH]c([C@@H]6CCCN6C(=O)[C@@H](NC(=O)OC)C(C)C)n5)cc4)cc3)cc2)c[nH]1)C(C)C	10.00 to 11.70
COC(=O)N[C@H](C(=O)N1CCC[C@H]1c1nc(-c2cccc(C#Cc3cccc(-c4c[nH]c([C@@H]5CCCN5C(=O)[C@@H](NC(=O)OC)C(C)C)n4)c3)c2)c[nH]1)C(C)C	10.00 to 11.70
COC(=O)N[C@@H](C(=O)N1CCC[C@H]1c1nc(-c2ccc(COc3ccc(-c4c[nH]c([C@@H]5CCCN5C(=O)[C@H](NC(=O)OC)c5ccccc5)n4)cc3)cc2)c[nH]1)c1ccccc1	10.00 to 11.70
CC[C@H](NC(=O)OC)C(=O)N1[C@@H](C)CC[C@H]1c1nc(-c2ccc(C#Cc3ccc(-c4c[nH]c([C@@H]5CC[C@H](C)N5C(=O)[C@H](CC)NC(=O)OC)n4)cc3)cc2)c[nH]1	10.00 to 11.70
COC(=O)N[C@H](C(=O)N1CCC[C@H]1c1ncc(-c2ccc(C#Cc3ccc4c(ccc5nc([C@@H]6CCCN6C(=O)[C@@H](NC(=O)OC)C(C)C)[nH]c54)c3)cc2)[nH]1)C(C)C	10.00 to 11.70
COC(=O)N[C@@H](C(=O)N1CC(F)(F)C[C@H]1c1ncc(-c2ccc(C#Cc3ccc(-c4cnc([C@@H]5CC(F)(F)CN5C(=O)[C@H](NC(=O)OC)C5CCOCC5)[nH]4)cc3)cc2)[nH]1)C1CCOCC1	6.46 to 8.00
COC(=O)N[C@H](C(=O)N1[C@@H]2C[C@@H]2C[C@H]1c1nc(-c2ccc(C#Cc3ccc(-c4c[nH]c([C@@H]5C[C@H]6C[C@H]6N5C(=O)[C@@H](NC(=O)OC)C5CCC5)n4)cc3)cc2)c[nH]1)C1CCC1	9.00 to 10.00

Shift focus to the following entry.
Query :: Note pEC50 for the compound shown: COC(=O)N[C@H](C(=O)N1[C@@H]2C[C@@H]2C[C@H]1c1ncc(-c2ccc([C@H]3C[C@@H]3c3ccc(-c4cnc([C@@H]5C[C@H]6C[C@H]6N5C(=O)[C@@H](NC(=O)OC)C5CCOCC5)[nH]4)cc3)cc2)[nH]1)C1CCOCC1
Result :: 10.00 to 11.70
